ASSAY_NAME: recombinant UMI read abundance after kanamycin selection (control-corrected) (log10(CPM+1)); higher = more efficient recombination; extreme values may be limits of the assay; sequences stand for … in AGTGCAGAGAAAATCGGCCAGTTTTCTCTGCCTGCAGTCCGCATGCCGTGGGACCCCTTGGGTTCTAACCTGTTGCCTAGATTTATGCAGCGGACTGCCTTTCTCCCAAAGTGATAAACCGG…AGGTTGGTTTCACT; site = the 11-nt donor;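 further: IS621 bridge recombinase in Escherichia coli cells against a fixed T5 target plasmid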
MEASUREMENT_LABEL: recombinant UMI read abundance (log10)

>>> df
                                   sequence  reported_value
0  CTTGTCTCATGGACCGGTTTTCCCGGTAATCCGTATTTGAA (site CTTGTCTCTTT)            1.85
1  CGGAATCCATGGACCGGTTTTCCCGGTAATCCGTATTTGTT (site CTGACTCCTAA)         0.00378
2  CGAGCATCATGGACCGGTTTTCCCGGTAATCCGTATTTGCT (site CGAACATCTAG)               0
3  GCCTGTGCATGGACCGGTTTTCCCGGTAATCCGTATTTGAC (site GCCTGTGCTGT)           0.472
4  ACTAATGCATGGACCGGTTTTCCCGGTAATCCGTATTTGGT (site ACTAGTGCTAC)         0.00699
5  CTAGTGTCATGGACCGGTTTTCCCGGTAATCCGTATTTGGC (site CTAGTATCTGT)            1.29
6  CGGGAGTCATGGACCGGTTTTCCCGGTAATCCGTATTTGCC (site CGGTAGTCTGG)           0.878
7  AAGCAGACATGGACCGGTTTTCCCGGTAATCCGTATTTGGA (site AAGCAGACTTC)            1.25
